Biological target: Nuclear receptor subfamily 1 group I member 2 (Homo sapiens)
Experiment: ATG_PXR_TRANS: Attagene TRANS-FACTORIAL HepG2 Assay for human Pregnane X Receptor (PXR) (AID 2283008)
Records with an inconclusive call do not appear. Activity calls are given as the source filed them. Rule for the calls: active = hit-call score of the fitted dose curve at least 0.9, where 1 is the maximum; inconclusive = response in the unintended direction; inactive = score below 0.9.
quantityName: AC50

O=S(=O)(O)C(F)(F)C(F)(F)C(F)(F)C(F)(F)F; inactive
O=C(O)C(F)(F)C(F)(F)C(F)(F)C(F)(F)C(F)(F)F; inactive
c1cc2ccc3cccc4ccc(c1)c2c34; inactive
c1ccc(-c2ccccc2)cc1; inactive
Cc1cc(O)ccc1Cl; inactive
Cc1ccccc1O; inactive
CC#Cc1cc(C)nc(Nc2ccccc2)n1; inactive
O=C(NC(=O)c1cc(F)c(F)cc1Cl)Nc1cc(F)ccc1N1CCC(C(=O)O)CC1; inactive
Clc1ccc(Cl)cc1; inactive
O=S(=O)(O)C(F)(F)C(F)(F)C(F)(F)C(F)(F)C(F)(F)C(F)(F)F; inactive
CC(C)C(=O)OCC(C)(C)C(OC(=O)C(C)C)C(C)C (centres undefined); 0.483 µM (active)
CCC(C)c1cc([N+](=O)[O-])cc([N+](=O)[O-])c1O (centres undefined); 26.9 µM (active)
Clc1ccc(C(Cl)(Cl)Cl)cc1; inactive
CCCCCCCCCC[N+](C)(C)CCCCCCCCCC; inactive
C[C@]12CCC(=O)C=C1CC[C@@H]1[C@@H]2CC[C@@]2(C)[C@H]1CC[C@]2(C)O; inactive
CCC(C)(CC)c1cc(NC(=O)c2c(OC)cccc2OC)on1; 0.692 µM (active)
ClC1=C(Cl)[C@]2(Cl)[C@@H]3[C@H]4C[C@H]([C@@H]5O[C@H]45)[C@@H]3[C@@]1(Cl)C2(Cl)Cl; inactive
Cc1cc2c3c(c1)C(c1ccccc1)=N[C@@H](NC(=O)c1ccncc1)C(=O)N3CC2; 2.54 µM (active)
Sc1ccccc1; inactive
Oc1ccc(C(c2ccc(O)cc2)(C(F)(F)F)C(F)(F)F)cc1; 6 µM (active) [middle of 4 runs]
O=C(N[C@H]1CN2CCC1CC2)c1cc2ccoc2cn1; inactive
Cc1ccccc1CO[C@@H]1C[C@@]2(C(C)C)CC[C@]1(C)O2; 5.24 µM (active)
CCCCCCOC(=O)c1ccccc1C(=O)OCCCCCC; 4.17 µM (active)
N#Cc1ccc(N(CC(N)=O)CC(F)(F)F)cc1C(F)(F)F; inactive
O=C(NC(=O)c1c(F)cccc1F)Nc1cc(Cl)c(OC(F)(F)C(F)F)c(Cl)c1; inactive
CCCCCCCCOC(=O)c1ccccc1C(=O)OCCCCCCCC; inactive
Cc1cc(-c2ccc(N)c(C)c2)ccc1N; inactive
COc1ccc(O)c(C(C)(C)C)c1; 4.55 µM (active)
CC(c1ccc(O)cc1)(c1ccc(O)cc1)c1ccc(O)cc1; 2.93 µM (active)
